Test system: Sporothrix schenckii
Assay: Antifungal activity against Sporothrix schenckii by broth microdilution technique
Type: functional, organism-based
Threshold 20 µg/mL: MIC strictly smaller gives yes (1), otherwise no (0).

Problem: For the molecule CCOC(=O)CSC1=C(Nc2ccccc2)C(=O)c2ccccc2C1=O , is MIC under 20 µg/mL?
no (0)

Problem: For the molecule CCOC(=O)CSC1=C(NC(C)C)C(=O)c2ccccc2C1=O , is MIC under 20 µg/mL?
no (0)

Problem: For the molecule OC(Cn1cncn1)(Cn1cncn1)c1ccc(F)cc1F [FLUCONAZOLE] , is MIC under 20 µg/mL?
yes (1)

Problem: For the molecule CCOC(=O)C(C)SC1=C(NCCO)C(=O)c2ccccc2C1=O (centres undefined) , is MIC under 20 µg/mL?
no (0)

Problem: For the molecule Cc1sc2c(=O)c3ccccc3c(=O)c=2n(C)c1O , is MIC under 20 µg/mL?
yes (1)

Problem: For the molecule CCOC(=O)CSC1=C(NCC(C)C)C(=O)c2ccccc2C1=O , is MIC under 20 µg/mL?
no (0)

Problem: For the molecule CCOC(=O)C(C)SC1=C(Cl)C(=O)c2ccccc2C1=O (centres undefined) , is MIC under 20 µg/mL?
no (0)

Problem: For the molecule CCOC(=O)CSC1=C(Cl)C(=O)c2ccccc2C1=O , is MIC under 20 µg/mL?
no (0)

Problem: For the molecule CCOC(=O)CSC1=C(NCc2ccccc2)C(=O)c2ccccc2C1=O , is MIC under 20 µg/mL?
no (0)

Problem: For the molecule CCOC(=O)C(C)SC1=C(NCCc2ccc(OC)c(OC)c2)C(=O)c2ccccc2C1=O (centres undefined) , is MIC under 20 µg/mL?
no (0)

Problem: For the molecule CCOC(=O)C(C)SC1=C(NN)C(=O)c2ccccc2C1=O (centres undefined) , is MIC under 20 µg/mL?
no (0)

Problem: For the molecule CCOC(=O)C(C)SC1=C(N)C(=O)c2ccccc2C1=O (centres undefined) , is MIC under 20 µg/mL?
no (0)

Problem: For the molecule CCOC(=O)C(C)SC1=C(NC(C)(C)C)C(=O)c2ccccc2C1=O (centres undefined) , is MIC under 20 µg/mL?
yes (1)

Problem: For the molecule C[C@@H]1[C@H](O)[C@@H](C)/C=C/C=C/C=C/C=C/C=C/C=C/C=C/[C@H](O[C@@H]2O[C@H](C)[C@@H](O)[C@H](N)[C@@H]2O)C[C@@H]2O[C@](O)(C[C@@H](O)C[C@@H](O)[C@H](O)CC[C@@H](O)C[C@@H](O)CC(=O)O[C@H]1C)C[C@H](O)[C@H]2C(=O)O [AMPHOTERICIN B] , is MIC under 20 µg/mL?
yes (1)

----------
For each record, write down the corresponding log10(IC50).
Test system: Aspergillus fumigatus
Assay: Antifungal activity against Aspergillus fumigatus by broth microdilution technique
Format: functional, organism-based
Units before log transform: µg/mL; reported quantity: IC50; transform: log10.

Query the reported log10(IC50) for Aspergillus fumigatus; item: OC(Cn1cncn1)(Cn1cncn1)c1ccc(F)cc1F [FLUCONAZOLE]
0.03

Query the reported log10(IC50) for Aspergillus fumigatus; item: C[C@@H]1[C@H](O)[C@@H](C)/C=C/C=C/C=C/C=C/C=C/C=C/C=C/[C@H](O[C@@H]2O[C@H](C)[C@@H](O)[C@H](N)[C@@H]2O)C[C@@H]2O[C@](O)(C[C@@H](O)C[C@@H](O)[C@H](O)CC[C@@H](O)C[C@@H](O)CC(=O)O[C@H]1C)C[C@H](O)[C@H]2C(=O)O [AMPHOTERICIN B]
-0.42

Query the reported log10(IC50) for Aspergillus fumigatus; item: CCOC(=O)C(C)SC1=C(NCCO)C(=O)c2ccccc2C1=O (centres undefined)
1.38

Query the reported log10(IC50) for Aspergillus fumigatus; item: Cc1sc2c(=O)c3ccccc3c(=O)c=2n(C)c1O
0.60

Query the reported log10(IC50) for Aspergillus fumigatus; item: CCOC(=O)C(C)SC1=C(N)C(=O)c2ccccc2C1=O (centres undefined)
1.22

Query the reported log10(IC50) for Aspergillus fumigatus; item: CCOC(=O)C(C)SC1=C(NN)C(=O)c2ccccc2C1=O (centres undefined)
1.35

----------
Test system: Trichophyton benhamiae
Experiment: Antifungal activity against Trichophyton mentagrophytes by broth microdilution technique
Assay type: functional, organism-based, Arthroderma benhamiae
test-readout: IC50

Find the recorded IC50 belonging to C[C@@H]1[C@H](O)[C@@H](C)/C=C/C=C/C=C/C=C/C=C/C=C/C=C/[C@H](O[C@@H]2O[C@H](C)[C@@H](O)[C@H](N)[C@@H]2O)C[C@@H]2O[C@](O)(C[C@@H](O)C[C@@H](O)[C@H](O)CC[C@@H](O)C[C@@H](O)CC(=O)O[C@H]1C)C[C@H](O)[C@H]2C(=O)O [AMPHOTERICIN B] and report it.
0.09 µg/mL

Find the recorded IC50 belonging to Cc1sc2c(=O)c3ccccc3c(=O)c=2n(C)c1O and report it.
0.9 µg/mL

Find the recorded IC50 belonging to CCOC(=O)CSC1=C(NCc2ccccc2)C(=O)c2ccccc2C1=O and report it.
4.5 µg/mL

Find the recorded IC50 belonging to CCOC(=O)CSC1=C(Cl)C(=O)c2ccccc2C1=O and report it.
> 50 µg/mL

Find the recorded IC50 belonging to CCOC(=O)CSC1=C(NCC(C)C)C(=O)c2ccccc2C1=O and report it.
9.8 µg/mL

Find the recorded IC50 belonging to CCOC(=O)C(C)SC1=C(N)C(=O)c2ccccc2C1=O (stereo unspecified) and report it.
> 50 µg/mL

Find the recorded IC50 belonging to CCOC(=O)C(C)SC1=C(Cl)C(=O)c2ccccc2C1=O (stereo unspecified) and report it.
> 50 µg/mL

Find the recorded IC50 belonging to CCOC(=O)CSC1=C(Nc2ccccc2)C(=O)c2ccccc2C1=O and report it.
23 µg/mL

Find the recorded IC50 belonging to OC(Cn1cncn1)(Cn1cncn1)c1ccc(F)cc1F [FLUCONAZOLE] and report it.
0.63 µg/mL

Find the recorded IC50 belonging to CCOC(=O)C(C)SC1=C(NCCO)C(=O)c2ccccc2C1=O (stereo unspecified) and report it.
> 50 µg/mL

Find the recorded IC50 belonging to CCOC(=O)C(C)SC1=C(NN)C(=O)c2ccccc2C1=O (stereo unspecified) and report it.
4.5 µg/mL

----------
For each record, write down the corresponding IC50.
Test system: Staphylococcus aureus
Assay: Antibacterial activity against Staphylococcus aureus by broth microdilution technique
Format: functional, organism-based
Settings: Staphylococcus aureus; read-out: IC50
Provide only the numeric value, understood in µg/mL.

Query the reported IC50 for Staphylococcus aureus; item: CCOC(=O)C(C)SC1=C(Cl)C(=O)c2ccccc2C1=O (centres undefined)
7.95

Query the reported IC50 for Staphylococcus aureus; item: CCOC(=O)CSC1=C(NCC(C)C)C(=O)c2ccccc2C1=O
21.6

Query the reported IC50 for Staphylococcus aureus; item: CCOC(=O)CSC1=C(NCc2ccccc2)C(=O)c2ccccc2C1=O
11.6

Query the reported IC50 for Staphylococcus aureus; item: Cc1sc2c(=O)c3ccccc3c(=O)c=2n(C)c1O
1.92

----------
Tested on: Aspergillus fumigatus
Test: Antifungal activity against Aspergillus fumigatus by broth microdilution technique
Type: functional, organism-based
For each record, write down the corresponding IC50.

Find the recorded IC50 belonging to CCOC(=O)CSC1=C(Cl)C(=O)c2ccccc2C1=O and report it.
> 50 µg/mL

Find the recorded IC50 belonging to CCOC(=O)CSC1=C(NCc2ccccc2)C(=O)c2ccccc2C1=O and report it.
> 50 µg/mL

Find the recorded IC50 belonging to CCOC(=O)CSC1=C(Nc2ccccc2)C(=O)c2ccccc2C1=O and report it.
> 50 µg/mL
